Test system: Hepatitis C virus
test_summary: Antiviral activity against Hepatitis C virus genotype 1b Con1 harboring V170A and C316Y mutations mutant infected in human HuH7.5 cells after 72 hrs by gaussia luciferase reporter assay
Assay type: functional, organism-based, Hepacivirus hominis
experimental_context: Con1, Huh-7, 72 h
observable: EC50 (nM)
Numeric answer only, unit nM assumed.

molecule | EC50 [nM]
CC(C)(C)NC(=O)N[C@H](C(=O)N1C[C@H]2[C@@H]([C@H]1C(=O)NC(CC1CCC1)C(=O)C(N)=O)C2(C)C)C(C)(C)C (some centres not stated) [BOCEPREVIR] | 4360

// query Request the reported EC50 associated with CNC(=O)c1c(-c2ccc(F)cc2)oc2cc(N(CCO)S(C)(=O)=O)c(C3CC3)cc12 [NESBUVIR]
// result 1340

###

Test system: Hepatitis C virus
test_summary: Antiviral activity against Hepatitis C virus genotype 1b Con1 infected in human HuH7 cells assessed as GAPDH RNA or 18S rRNA level after 3 days selected with 40 nM HCV-796 and 800 nM boceprevir by qRT-PCR analysis
Assay type: functional, organism-based, Hepacivirus hominis
experimental_context: Con1, Huh-7, 72 h
Rule for this label: class 1 means EC50 is less than 2000 nM; class 0 means EC50 is at least 2000 nM.

Known results for compounds:
compound | assigned_category
COC1=C2C[C@@H](C)C[C@H](OC)[C@H](O)[C@@H](C)/C=C(\C)[C@H](OC(N)=O)[C@@H](OC)/C=C\C=C(/C)C(=O)NC(=CC1=O)C2=O [GELDANAMYCIN] | class 1
C[C@@]1(O)[C@H](O)[C@@H](CO)O[C@H]1n1ccc(N)nc1=O | class 1
CC(C)(C)NC(=O)N[C@H](C(=O)N1C[C@H]2[C@@H]([C@H]1C(=O)NC(CC1CCC1)C(=O)C(N)=O)C2(C)C)C(C)(C)C (stereo partly drawn) [BOCEPREVIR] | class 1
CC(=O)c1cc(F)c(Cl)cc1NCC(=O)Nc1ccccc1C(=O)O | class 0

// query Is 2000 nM strictly greater than the compound's reported EC50? compound: `CC(=O)c1cc(F)c(Br)cc1NCC(=O)Nc1ccccc1C(=O)O`
// result class 0

// query Is 2000 nM strictly greater than the compound's reported EC50? compound: `CCC[C@]1(CC(=O)O)OCCc2c1[nH]c1c(C)ccc(C#N)c21`
// result class 0

// query Is 2000 nM strictly greater than the compound's reported EC50? compound: CO[C@H]1/C=C\C=C(/C)C(=O)NC2=CC(=O)C(NCCN(C)C)=C(C[C@@H](C)C[C@H](OC)[C@H](O)[C@@H](C)/C=C(\C)[C@@H]1OC(N)=O)C2=O [ALVESPIMYCIN]
// result class 1

// query Is 2000 nM strictly greater than the compound's reported EC50? compound: CNC(=O)c1c(-c2ccc(F)cc2)oc2cc(N(CCO)S(C)(=O)=O)c(C3CC3)cc12 [NESBUVIR]
// result class 0

###

System: Hepatitis C virus
test_summary: Antiviral activity against Hepatitis C virus genotype 1b Con1 infected in human HuH7 cells assessed as GAPDH RNA or 18S rRNA level after 3 days selected with 40 nM HCV-796 and 800 nM boceprevir by qRT-PCR analysis relative to control
Type: functional, organism-based, Hepacivirus hominis, Huh-7
Let's look at some molecules and their measured Ratio IC50.
Give your answer as a number; write no unit.

Previously resolved entries follow.
molecule | Ratio IC50
CC(C)(C)NC(=O)N[C@H](C(=O)N1C[C@H]2[C@@H]([C@H]1C(=O)NC(CC1CCC1)C(=O)C(N)=O)C2(C)C)C(C)(C)C (some centres not stated) | 10
CO[C@H]1/C=C\C=C(/C)C(=O)NC2=CC(=O)C(NCCN(C)C)=C(C[C@@H](C)C[C@H](OC)[C@H](O)[C@@H](C)/C=C(\C)[C@@H]1OC(N)=O)C2=O | 3
C[C@@]1(O)[C@H](O)[C@@H](CO)O[C@H]1n1ccc(N)nc1=O | 1

// query // fetch Hepatitis C virus Ratio IC50 for `CNC(=O)c1c(-c2ccc(F)cc2)oc2cc(N(CCO)S(C)(=O)=O)c(C3CC3)cc12`
// result 1403

// query // fetch Hepatitis C virus Ratio IC50 for `CCC[C@]1(CC(=O)O)OCCc2c1[nH]c1c(C)ccc(C#N)c21`
// result 2

// query // fetch Hepatitis C virus Ratio IC50 for `COC1=C2C[C@@H](C)C[C@H](OC)[C@H](O)[C@@H](C)/C=C(\C)[C@H](OC(N)=O)[C@@H](OC)/C=C\C=C(/C)C(=O)NC(=CC1=O)C2=O`
// result 5
